target: Adenosine receptor A1 (Rattus norvegicus, UniProt P25099); assay: Displacement of [3H]DPCPX from adenosine A1 receptor in rat brain membrane
Sequence (P25099 whole entry): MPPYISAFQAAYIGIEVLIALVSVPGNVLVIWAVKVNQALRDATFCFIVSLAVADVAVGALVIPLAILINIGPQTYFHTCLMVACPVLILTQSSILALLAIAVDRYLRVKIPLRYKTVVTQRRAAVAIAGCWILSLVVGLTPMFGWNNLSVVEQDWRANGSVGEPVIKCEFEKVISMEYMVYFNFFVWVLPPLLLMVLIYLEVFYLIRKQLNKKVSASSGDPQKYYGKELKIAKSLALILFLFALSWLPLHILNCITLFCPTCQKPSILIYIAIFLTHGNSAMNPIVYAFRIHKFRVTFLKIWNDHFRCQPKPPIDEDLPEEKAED
pIC50: −log10 of the molar value.

{"COMPOUND": "C/C=C(\\C)C(=O)O[C@@H]1CC/C(C)=C\\[C@@H]2OC(=O)C(C)=C2C[C@H]2C(C)=CC(=O)[C@H](OC(C)=O)[C@]12C [ANTHOPTILIDE A]", "pIC50": 3.38}
{"COMPOUND": "CC(=O)O[C@H]1C(=O)C=C(C)[C@@H]2CC3=C(C)C(=O)O[C@H]3/C=C(/C)CC[C@@H](OC(=O)c3ccccc3)[C@]21C [ANTHOPTILIDE D]", "pIC50": 3.30}
{"COMPOUND": "CCC(=O)O[C@@H]1CC/C(C)=C\\[C@@H]2OC(=O)C(C)=C2C[C@H]2C(C)=C[C@H](OC(C)=O)[C@H](OC(C)=O)[C@]12C [ANTHOPTILIDE E]", "pIC50": 3.31}
{"COMPOUND": "CCC(=O)O[C@@H]1CC/C(C)=C\\[C@@H]2OC(=O)C(C)=C2C[C@H]2C(C)=CC(=O)[C@H](OC(C)=O)[C@]12C [ANTHOPTILIDE C]", "pIC50": 5.51}
{"COMPOUND": "CC(=O)O[C@H]1C(=O)C=C(C)[C@@H]2CC3=C(C)C(=O)O[C@H]3/C=C(/C)CC[C@@H](OC(=O)C(C)C)[C@]21C [ANTHOPTILIDE B]", "pIC50": 4.35}
